Let's look at some sequences and their measured pKd.
- test-target: HLA-A*26:01
- assay-notes: IEDB peptide-MHC binding, purified MHC/competitive/radioactivity; filed as Kd, often an IC50 or EC50 that approximates it; bounds were set here for any values at or beyond the usual limits of such assays
- assay-setup: source organism: SARS coronavirus Tor2
pKd: −log10 of the molar value.
endpoint: pKd

    sequence_text  endpoint  qualifier_sign  result_value
 0     YLALYNKYKY       pKd               =          4.72
 1      TYASALWEI       pKd               ≤          4.11
 2     VFSAVGNICY       pKd               =          5.89
 3     SYREAACCHL       pKd               ≤          4.16
 4      APALQEAYY       pKd               ≤          4.18
 5     VYKVYYGNAL       pKd               =          4.93
 6      TSSMRGVYY       pKd               =          5.08
 7      VSIINNAVY       pKd               =          4.82
 8     YEDQDALFAY       pKd               ≤          4.19
 9      LDESFLGRY       pKd               =          4.90
10      LYLTQDLFL       pKd               ≤          4.47
11      LFLAFVVFL       pKd               =          6.24
12      VMPVHTLSI       pKd               ≤          4.68

* * *

- test-target: HLA-A*30:01
- assay-notes: IEDB peptide-MHC binding, purified MHC/competitive/radioactivity; filed as Kd, often an IC50 or EC50 that approximates it; bounds were set here for any values at or beyond the usual limits of such assays
- assay-setup: source organism: Mammarenavirus juninense
endpoint: Kd

>>> print(df.to_string())
   sequence_text  result_value
0     EDAMPGVLSY     ≥ 70.4 µM

* * *

- test-target: HLA-A*69:01
- assay-notes: IEDB peptide-MHC binding, purified MHC/direct/fluorescence; filed as Kd, often an IC50 or EC50 that approximates it; bounds were set here for any values at or beyond the usual limits of such assays
- assay-setup: source organism: Orthohantavirus hantanense
endpoint: Kd

>>> df
   sequence_text  endpoint  result_value
0      IRKPKHLYV        Kd       ≥ 20 µM

* * *

- test-target: HLA-B*48:01
- assay-notes: IEDB peptide-MHC binding, purified MHC/direct/fluorescence; filed as Kd, often an IC50 or EC50 that approximates it; bounds were set here for any values at or beyond the usual limits of such assays
- assay-setup: source organism: Listeria monocytogenes serotype 4b str. H7858
pKd: −log10 of the molar value.
endpoint: pKd

>>> print(df.to_string())
   sequence_text  endpoint  result_value
0      AEFNEDGLL       pKd        ≤ 4.70
